# Tested on: SEM cells
# ASSAY SUMMARY: cell viability relative to DMSO control; higher = less cytotoxic
# STATED CONDITIONS: RPMI 5 mM glucose + 10% dialyzed FBS; 48 h; 0.0211 µM
ASSAY METRIC: cell viability
Answers without a unit are incomplete; give the number and then its unit.

Reference set, count: 3
{"COMPOUND STRUCTURE STRING": "COc1cc(F)c(F)c(Nc2ccc(I)cc2F)c1N[S+](=O)([O-])C1(C[C@H](O)CO)CC1", "cell viability": "115%"}
{"COMPOUND STRUCTURE STRING": "C[C@]12CC[C@H]3[C@@H](CC[C@H]4NC(=O)\\C=C/[C@]34C)[C@@H]1CC[C@@H]2C(=O)NC5=CC(=CC=C5C(F)(F)F)C(F)(F)F", "cell viability": "126%"}
{"COMPOUND STRUCTURE STRING": "CC(C)N[C@@H]1CCn2c(=O)[nH]c3cccc(c32)[C@H]1O", "cell viability": "122%"}

Enquiry: Tell me its cell viability given S=C(NCc1ccc2c(c1)OCO2)N1CCN(c2ncnc3c2oc2ccccc23)CC1 as the entry.
Return: 127%

Enquiry: Output cell viability of N#CCNC(=O)c1ccc(-c2ccnc(Nc3ccc(N4CCOCC4)cc3)n2)cc1
Return: 115%

====

# Tested on: P12-Ichikawa
# ASSAY SUMMARY: cell viability relative to DMSO control; higher = less cytotoxic
# STATED CONDITIONS: RPMI 5 mM glucose + 10% FBS; 48 h; 0.569 µM
ASSAY METRIC: cell viability (%)
Kindly provide the numeric value in % only, without the unit symbol.

Some entries whose results are on file:
{"COMPOUND": "C[C@](O)(CS(=O)(=O)c1ccc(F)cc1)C(=O)Nc1ccc(C#N)c(C(F)(F)F)c1", "cell viability, %": 114}
{"COMPOUND": "Cc1ccccc1C(=O)c1ccc(Nc2ccc(Br)cc2N)cc1Cl", "cell viability, %": 117}

Enquiry: Lab note: record cell viability of O=C1NC(=O)/C(=C/c2ccc3nccc(-c4ccncc4)c3c2)S1 tested on P12-Ichikawa.
Return: 64.2

Enquiry: Give cell viability; test system P12-Ichikawa; compound CC1=C(C)C(=O)C(C(CCCCCC(=O)O)c2ccccc2)=C(C)C1=O (centres undefined)
Return: 82.3

Enquiry: Provide cell viability, tested on P12-Ichikawa, for NC\1=N\C(=O)N(\C=C1)[C@@H]2O[C@H](CO)[C@@H](O)[C@@H]2O .
Return: 3.63

Enquiry: Provide cell viability, recorded with P12-Ichikawa, of O=C1[C@H](Cc2ccc(O)cc2)N2C(=O)CCN(C(=O)NCc3ccccc3)[C@H]2CN1Cc1cccc2ccccc12
Return: 83

Enquiry: Report value: cell viability, system: P12-Ichikawa, compound: CC(C)(C)OC(=O)N[C@H]1CCCCC/C=C\[C@@H]2C[C@@]2(C(=O)N[S+](=O)([O-])C2CC2)NC(=O)[C@@H]2C[C@@H](OC(=O)N3Cc4cccc(F)c4C3)CN2C1=O
Return: 125

Enquiry: Print P12-Ichikawa cell viability for O=C(Nc1cc(Cl)cc2c1[nH]c1cnccc12)c1cccnc1 .
Return: 117

Enquiry: State recorded cell viability with P12-Ichikawa, entry NNCCc1ccccc1 , no comment.
Return: 129

====

# System: SEM cells
# ASSAY SUMMARY: cell viability relative to DMSO control; higher = less cytotoxic
# STATED CONDITIONS: RPMI 5 mM glucose + 10% FBS; 48 h; 0.000781 µM
The entries below come with measured cell viability values attached.
Give the quantity in %, number only.

Examples with answers:
{"COMPOUND": "CCC1(c2ccccc2)C(=O)NCNC1=O", "SYSTEM": "SEM cells", "READING UNIT": "%", "DATA VALUE": 100}
{"COMPOUND": "O=C(O)CCC1CCC(c2cc(F)ccc2F)([S+](=O)([O-])c2ccc(Cl)cc2)CC1 (configuration not stated)", "SYSTEM": "SEM cells", "READING UNIT": "%", "DATA VALUE": 104}
{"COMPOUND": "CCc1ccc(CCOc2ccc(CC3SC(=O)NC3=O)cc2)nc1 (configuration not stated)", "SYSTEM": "SEM cells", "READING UNIT": "%", "DATA VALUE": 93.5}
{"COMPOUND": "COc1ccc([S+](=O)([O-])N(C(C)=O)c2ccccc2/C=C/c2cc[n+]([O-])cc2)cc1", "SYSTEM": "SEM cells", "READING UNIT": "%", "DATA VALUE": 122}
{"COMPOUND": "C=C1/C(=C\\C=C2/CCC[C@]3(C)[C@@H]([C@H](C)CCCC(C)(C)O)CC[C@@H]23)C[C@@H](O)C[C@@H]1O", "SYSTEM": "SEM cells", "READING UNIT": "%", "DATA VALUE": 105}
{"COMPOUND": "O=C1[C@H](Cc2ccc(O)cc2)N2C(=O)CCN(C(=O)NCc3ccccc3)[C@H]2CN1Cc1cccc2ccccc12", "SYSTEM": "SEM cells", "READING UNIT": "%", "DATA VALUE": 64.9}

Enquiry: Please list cell viability recorded for the compound CC(C)(C)OC(=O)N[C@H]1CCCCC/C=C\[C@@H]2C[C@@]2(C(=O)N[S+](=O)([O-])C2CC2)NC(=O)[C@@H]2C[C@@H](OC(=O)N3Cc4cccc(F)c4C3)CN2C1=O
Return: 96.1

Enquiry: For the compound CC(C)(C)NC(=O)Nc1cccc(Nc2ncc(F)c(NC(C)(C)CO)n2)c1 , report cell viability.
Return: 108

Enquiry: Please give the documented cell viability of NC\1=N\C(=O)N(\C=C1)[C@@H]2O[C@H](CO)[C@@H](O)[C@@H]2O
Return: 37.4

Enquiry: Tell me its cell viability given C[C@@H](Oc1cc(-c2cnn(C3CCNCC3)c2)cnc1N)c1c(Cl)ccc(F)c1Cl as the entry.
Return: 81.4

Enquiry: # return recorded cell viability for entry COc1cc(F)c(F)c(Nc2ccc(I)cc2F)c1N[S+](=O)([O-])C1(C[C@H](O)CO)CC1
Return: 111

Enquiry: Quick one: give measured cell viability for FC1=CC=C(C=C1)N2/C=C\C=C(C(=O)NC3=CC=C(OC4=C5C=C[NH]C5=NC=C4)C(=C3)F)/C2=O
Return: 72.6

Enquiry: Output cell viability of C[N]1C=C(C=N1)C2=C3\C=N/NC(=O)C4=C3C(=CC(=C4)NC(=O)[C@H](N)C5CCCCC5)[NH]2
Return: 101

Enquiry: Please give the documented cell viability of CC(C)OC(=O)C(C(=O)OC(C)C)=C1S\C=C/S1
Return: 114

Enquiry: Entry CN(C)C(=N)NC(=N)N needs its cell viability filled in; supply it.
Return: 110

Enquiry: # return recorded cell viability for input FC1=C(C=C(C\C2=N\NC(=O)C3=C2C=CC=C3)C=C1)C(=O)N4CCN(CC4)C(=O)C5CC5
Return: 94.7

Enquiry: Retrieve cell viability measured for CNC(=O)c1c(-c2ccc(F)cc2)oc2cc(N(CCO)[S+](C)(=O)[O-])c(C3CC3)cc12 and print it.
Return: 44.5

====

# Tested on: P12-Ichikawa
# ASSAY SUMMARY: AUC of viability dose-response curve (% viability x log10 dose units); higher = less sensitive
# STATED CONDITIONS: RPMI 5 mM glucose + 10% dialyzed FBS; 48 h
ASSAY METRIC: AUC of viability dose-response curve
Keep the answer to the number alone.

Field: example entries. Status: answers known.
{"MOLECULE": "CCN(CC)CCOc1ccc(/C(=C(\\Cl)c2ccccc2)c2ccccc2)cc1", "DATA VALUE": 456}
{"MOLECULE": "C[C@@H](Oc1cc(-c2cnn(C3CCNCC3)c2)cnc1N)c1c(Cl)ccc(F)c1Cl", "DATA VALUE": 400}
{"MOLECULE": "COc1ccc2cc([C@H](C)C(=O)O)ccc2c1", "DATA VALUE": 464}

Enquiry: Give a short answer stating reported AUC of viability dose-response curve for O=C(O)C1(Cc2cccc(Nc3nccs3)n2)CCC(Oc2cccc(Cl)c2F)CC1 (configuration not stated) .
Return: 381

Enquiry: Provide one value: measured AUC of viability dose-response curve of O=c1[nH]c(=O)n([C@H]2C[C@H](O)[C@@H](CO)O2)cc1/C=C/Br
Return: 477

Enquiry: Retrieve AUC of viability dose-response curve measured for OC[C@H]1O[C@@H](O[C@@H]2O\C=C(/[C@H]3C\C=C(CO)/[C@@H]23)C(O)=O)[C@H](O)[C@@H](O)[C@@H]1O and print it.
Return: 418

Enquiry: Provide only the value of recorded AUC of viability dose-response curve for NC1=C(Cl)C(=CC=N1)OC2=C(F)C=C(NC(=O)\C3=C\N\C=C(C3=O)\C4=CC=C(F)C=C4)C=C2
Return: 447

Enquiry: Please indicate AUC of viability dose-response curve recorded for CCOC(=O)[C@@H](N)Cc1ccc(-c2cc(O[C@H](c3ccc(Cl)cc3-n3ccc(C)n3)C(F)(F)F)nc(N)n2)cc1.O=C(O)CNC(=O)c1ccccc1
Return: 460

Enquiry: Quote AUC of viability dose-response curve reported for Cc1cc(Nc2cc(NC(=O)c3c(Cl)cccc3Cl)ccn2)nc(N)n1 please.
Return: 346

Enquiry: // fetch AUC of viability dose-response curve given entry C/C=C/C/C=C/CCC(=O)[C@H]1O[C@H]1C(N)=O
Return: 469

Enquiry: Hello, please tell me recorded AUC of viability dose-response curve for this one: CC1=C(C)C(=O)C(C(CCCCCC(=O)O)c2ccccc2)=C(C)C1=O (configuration not stated)
Return: 362

Enquiry: Please report AUC of viability dose-response curve for the following molecule: c1ccc2[nH]c(-c3cscn3)nc2c1
Return: 461

Enquiry: Give the measured AUC of viability dose-response curve for C=C1/C(=C\C=C2/CCC[C@]3(C)[C@@H]([C@H](C)CCCC(C)(C)O)CC[C@@H]23)C[C@@H](O)C[C@@H]1O
Return: 458
